assay: basal 3T3-L1 adipocyte mitochondrial potential changes, profiling panel, cell-based, JC-1 fluorescence, 3T3-L1 adipocytes, 24 h, 100 nL compound (AID 1168); settings: JC-1 mitochondrial fluorescence, higher = more signal, called active from +8 up or from −8 down; note: test concentration not given here
Criterion: z-score meeting or surpassing 0.1. Met: rule met. Not met: rule not met.

See these solved cases before continuing.
compound	classification
CO[C@H]1COC(=O)[C@H](C)COC(=O)[C@@H](OCc2ccccc2)C=C[C@@H]1C	rule met
CC(CCN1CCCc2nc(C)c(C)cc21)=NO[C@H](C)c1cn([C@@H]2COC[C@H]2O)nn1	rule met
CC(C)[C@@H](OCc1ccccc1)[C@H](C)CON=C1[C@H]2CCn3c(=O)n(-c4ccccc4)c(=O)n3[C@H]2[C@H](O)[C@@H]2O[C@H]12	rule met

Could you please find out whether COC(=O)[C@H](C)NC(=O)CCC1CC(OC(=O)NCc2ccc3c(c2)OCO3)CC2(CCCC(COC(=O)NCCC(C)C)O2)O1 (some centres not stated) has z-score that meets 0.1 or exceeds it?
rule not met

API: above_or_equal(metric=z-score, cutoff=0.1) for item COC(=O)[C@@H]1CC[C@H](C)[C@@H](c2ccc(C)cc2)N1C(=O)c1ccc(C=NO[C@@H](C)c2cc(-c3c(C)cc(C)cc3C)no2)cc1
rule met

Confirm if z-score reported for the compound COC(=O)[C@@H]1CC[C@H](C)[C@@H](c2ccc(Br)cc2)N1C[C@H](O)CN=[N+]=[N-] is 0.1 or above.
rule not met

* * *

system: Fibrinogen (Alexa647-labelled); experiment: fibrinogen binders on compound microarrays, profiling panel, artefact control for SMM control-protein annotation, biochemical, small-molecule microarray, 635/667 nm fluorescence (AID 1131); details: fibrinogen-A647 binding fluorescence, higher = more signal;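 note: z-score merges 667 nm fluorescence with per-spot signal-to-noise over triplicate slides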
property: composite z-score

Below, 10 compounds whose answers are already recorded.
compound	composite z-score
CON=C(C)CCN1CCc2nc(-c3ccccc3)c(-c3ccccc3)cc2C1	0.838
CC(CCN1CCCCc2nc(C)c(C)cc21)=NOC[C@@H](O)[C@H]1O[C@@H]2OC(C)(C)O[C@@H]2[C@H]1O	1.01
O=C1[C@H]2[C@H]3[C@H](O)[C@H](O)CC(=NOC[C@@H](O)COCc4ccco4)[C@@H]3CC[C@H]2C(=O)N1Cc1ccc2c(c1)OCO2	-0.952
CC(=O)OC[C@H]1O[C@H](CC=NO[C@H](C)c2cn([C@@H]3COC[C@H]3O)nn2)C=C[C@@H]1OC(C)=O	0.897
CC(C)[C@@H](OCc1ccccc1)[C@H](C)C=NO[C@H](C)c1cn([C@@H]2COC[C@H]2O)nn1	0.0524
CC(CCC(=O)OC[C@H]1O[C@H](C#Cc2ccccc2)C=C[C@@H]1Oc1ccc(C)cc1)=NO[C@@H](C)c1cc(-c2c(C)cc(C)cc2C)no1	0.709
CO[C@H]1COC(=O)CCC[C@H](C)[C@H](OC)COC(=O)CC=C[C@@H]1C	-1.52
COC(=O)[C@H](C)NC(=O)CCC1CC(OC(=O)NCc2ccc3c(c2)OCO3)CC2(CCCC(COC(=O)NCCC(C)C)O2)O1 (some centres undefined)	0.87
O=C1[C@H]2[C@H]3[C@H](O)[C@H](O)CC(=NOCc4ccccc4)[C@H]3CC[C@H]2C(=O)N1C1CCCCC1	1
CCN1C(=O)[C@H]2[C@H]3[C@H](O)[C@H](O)CC(=NO[C@H](C)c4cn([C@H](CO)Cc5ccccc5)nn4)[C@@H]3CC[C@H]2C1=O	0.932

# composite z-score lookup, item COC(=O)[C@H](C)NC(=O)CCC1CC(OC(=O)NCc2cccc3ccccc23)CC2(CCCC(COC(=O)NCCOc3ccccc3)O2)O1 (some centres undefined)
0.793

Param item = CC(C)(C)N1C(=O)[C@H]2[C@H]3[C@H](O)[C@H](O)CC(=NNC(=O)OCc4ccccc4)[C@H]3CC[C@H]2C1=O ; retrieve measured composite z-score.
1.03

For the compound COc1ccc(OC[C@@H](CO)OC)cc1 , what composite z-score is on record?
0.227

# lookup: composite z-score of CCOC(=O)[C@H](Cc1ccccc1)NC(=O)CCC1CC(OC(=O)NCc2cccc3ccccc23)CC2(CCCC(COC(=O)NCCc3ccccc3OC)O2)O1 (some centres undefined)
0.287
